- measuredOn: hemagglutinin (HA) of live influenza A/Wisconsin/67/05 (H3N2) virus (influenza A virus A/Wisconsin/67/2005 …)
- assayExplanation: cell-based or functional assay
Listing of entries alongside the reported % Neutralization.
# unit: % | format: bare number

Guide cases for % Neutralization, answers given:
{"columns": ["binder", "measuredAttribute", "val"],
 "data": [
  ["TCN-535 (5246_P19) (antibody, V domains shown) VH: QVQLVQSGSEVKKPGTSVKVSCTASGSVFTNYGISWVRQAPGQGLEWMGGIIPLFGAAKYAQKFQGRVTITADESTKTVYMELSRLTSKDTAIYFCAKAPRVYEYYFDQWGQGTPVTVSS VL: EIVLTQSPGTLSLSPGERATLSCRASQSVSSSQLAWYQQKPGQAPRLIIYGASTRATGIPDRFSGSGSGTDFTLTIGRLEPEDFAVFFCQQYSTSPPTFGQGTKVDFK", "% Neutralization", 0],
  ["TCN-551 (5243_D01) (antibody, V domains shown) VH: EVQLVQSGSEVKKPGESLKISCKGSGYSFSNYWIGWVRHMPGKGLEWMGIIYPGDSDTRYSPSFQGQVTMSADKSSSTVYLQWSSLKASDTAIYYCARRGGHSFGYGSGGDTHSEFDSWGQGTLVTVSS VL: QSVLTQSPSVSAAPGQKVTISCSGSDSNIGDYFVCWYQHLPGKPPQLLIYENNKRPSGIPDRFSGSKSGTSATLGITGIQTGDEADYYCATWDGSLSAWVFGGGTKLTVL", "% Neutralization", 6],
  ["TCN-546 (5089_L08) (antibody, V domains shown) VH: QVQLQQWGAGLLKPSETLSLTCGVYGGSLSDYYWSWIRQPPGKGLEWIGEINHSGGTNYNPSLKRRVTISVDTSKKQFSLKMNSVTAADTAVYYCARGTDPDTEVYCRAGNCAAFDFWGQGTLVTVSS VL: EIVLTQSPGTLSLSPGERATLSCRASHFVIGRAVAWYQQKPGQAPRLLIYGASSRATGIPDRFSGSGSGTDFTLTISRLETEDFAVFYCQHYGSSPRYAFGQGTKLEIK", "% Neutralization", 100],
  ["TCN-543 (5081_G23) (antibody, V domains shown) VH: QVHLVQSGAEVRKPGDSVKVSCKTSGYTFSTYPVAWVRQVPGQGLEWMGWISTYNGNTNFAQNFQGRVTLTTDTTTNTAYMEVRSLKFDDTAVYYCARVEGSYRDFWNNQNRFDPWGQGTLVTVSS VL: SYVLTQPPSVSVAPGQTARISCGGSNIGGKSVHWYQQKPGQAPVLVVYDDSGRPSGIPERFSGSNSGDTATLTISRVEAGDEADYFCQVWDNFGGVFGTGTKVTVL", "% Neutralization", 73]
]}

In the following, a different binder is considered.
Record TCN-550 (5096_F06) (antibody, V domains shown) VH: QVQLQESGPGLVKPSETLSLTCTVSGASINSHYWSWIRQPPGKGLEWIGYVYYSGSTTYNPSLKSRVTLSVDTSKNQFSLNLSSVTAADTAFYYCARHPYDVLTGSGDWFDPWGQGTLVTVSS VL: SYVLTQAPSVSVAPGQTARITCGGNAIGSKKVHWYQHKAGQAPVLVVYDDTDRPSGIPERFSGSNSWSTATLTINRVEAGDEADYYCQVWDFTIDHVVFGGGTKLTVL . Reported % Neutralization: 100
